Target: S1P1 (Homo sapiens (Human))
Assay: S1P1 binding assay (33P-S1P radioligand competition, membranes from CHO cells)
Conditions: 33P-S1P competition, membranes from CHO cells expressing human S1P1; read-out: S1P1 Binding IC50
MEASURED ATTRIBUTE: IC50 (nM)

COMPOUND	MEASUREMENT TARGET	MEASURED ATTRIBUTE	READOUT VALUE
COc1cccc(CCC2CCc3cc([C@H]4CC[C@](N)(COP(=O)(O)O)C4)ccc3C2)c1 (single isomer, unassigned)	S1P1 (Homo sapiens (Human))	IC50	5.2
CCOCCCC1CCc2cc([C@H]3CC[C@](N)(COP(=O)(O)O)C3)ccc2C1 (single isomer, unassigned)	S1P1 (Homo sapiens (Human))	IC50	119

* * *

Target: S1P1 (Homo sapiens (Human), UniProt P21453)
Sequence (P21453 whole entry): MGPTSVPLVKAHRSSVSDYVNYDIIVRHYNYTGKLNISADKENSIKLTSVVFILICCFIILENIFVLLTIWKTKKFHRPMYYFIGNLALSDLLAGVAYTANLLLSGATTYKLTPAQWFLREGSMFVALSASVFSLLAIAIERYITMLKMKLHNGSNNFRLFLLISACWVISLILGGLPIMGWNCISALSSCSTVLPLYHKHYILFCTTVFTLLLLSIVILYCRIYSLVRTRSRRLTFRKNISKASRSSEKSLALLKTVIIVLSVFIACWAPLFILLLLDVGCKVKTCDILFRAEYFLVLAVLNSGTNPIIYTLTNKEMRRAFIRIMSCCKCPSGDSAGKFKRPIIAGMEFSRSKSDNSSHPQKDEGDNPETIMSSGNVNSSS
Experiment: Receptor [35S] GTPγS binding assay (S1P1 GTPγS), membranes from S1P1/CHO cells
Assay type: biochemical
Settings: phosphate examples; read-out: S1P1 GTPγS

STRUCTURE AS SMILES	EC50
CCC/C=C/CO[C@@H]1CCc2cc([C@H]3CC[C@](N)(COP(=O)(O)O)C3)ccc2C1	10 to 100 nM

* * *

Below, each of the compounds is paired with its reported pEC50 value.
Target: S1P1 (Homo sapiens (Human))
Test: Receptor [35S] GTPγS binding assay (S1P1 GTPγS), membranes from S1P1/CHO cells
Assay type: biochemical
Settings: membranes from S1P1/CHO cells; read-out: GTPγS S1P1 EC50
pEC50: −log10 of the molar value.

COMPOUND	MEASUREMENT TARGET	pEC50
COc1cccc(CCC2CCc3cc([C@H]4CC[C@](N)(COP(=O)(O)O)C4)ccc3C2)c1 (single isomer, unassigned) [Example 693]	S1P1 (Homo sapiens (Human))	7.72
CCOCCCC1CCc2cc([C@H]3CC[C@](N)(COP(=O)(O)O)C3)ccc2C1 (single isomer, unassigned) [Example 695]	S1P1 (Homo sapiens (Human))	7.31
COCCCCCC1CCc2cc([C@@H]3CC[C@](N)(COP(=O)(O)O)C3)ccc2C1 (single isomer, unassigned) [Example 692]	S1P1 (Homo sapiens (Human))	8.36
